The measured values listed here are drawn from ChEMBL document CHEMBL4390691.

molecular target: CYP2C19 (Homo sapiens); experiment: Inhibition of CYP2C19 in human liver microsomes at 10 uM using testosterone/dextromethorphan as probe substrate measured after 10 mins relative to control; type: ADME
Sequence (P33261 whole entry): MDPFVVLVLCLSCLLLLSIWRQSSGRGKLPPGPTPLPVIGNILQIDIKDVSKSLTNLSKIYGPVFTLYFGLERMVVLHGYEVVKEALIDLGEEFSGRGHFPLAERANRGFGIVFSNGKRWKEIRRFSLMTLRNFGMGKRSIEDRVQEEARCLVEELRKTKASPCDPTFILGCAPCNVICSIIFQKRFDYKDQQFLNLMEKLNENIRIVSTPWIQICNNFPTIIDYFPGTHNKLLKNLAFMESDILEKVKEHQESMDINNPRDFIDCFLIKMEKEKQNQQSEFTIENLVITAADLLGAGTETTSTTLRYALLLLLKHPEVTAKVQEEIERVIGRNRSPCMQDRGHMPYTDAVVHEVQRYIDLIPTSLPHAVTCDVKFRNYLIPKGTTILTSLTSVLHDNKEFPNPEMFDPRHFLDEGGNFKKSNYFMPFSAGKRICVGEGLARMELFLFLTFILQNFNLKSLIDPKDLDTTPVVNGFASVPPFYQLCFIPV
PARAMETER: inhibition at 10 min, 10 µM

For COc1ccc(Cn2c(=O)n(C)c3c4cc(-c5cnc(OC)c(NS(C)(=O)=O)c5)ccc4ncc32)cc1 , what is its reported inhibition at 10 min, 10 µM?
< 10%

###

assay: Protein binding in DBA1/J mouse plasma; type: ADME, cell-free; conditions: read-out: PPB (converted)
PARAMETER: fraction unbound
Give bare numbers.

For COc1ccc(Cn2c(=O)n(C)c3c4cc(-c5cnc(OC)c(NS(C)(=O)=O)c5)ccc4ncc32)cc1 , what is its reported fraction unbound?
0.11
